Biological target: T1, GST-MTA1 (residues 171-372)
T1 chain: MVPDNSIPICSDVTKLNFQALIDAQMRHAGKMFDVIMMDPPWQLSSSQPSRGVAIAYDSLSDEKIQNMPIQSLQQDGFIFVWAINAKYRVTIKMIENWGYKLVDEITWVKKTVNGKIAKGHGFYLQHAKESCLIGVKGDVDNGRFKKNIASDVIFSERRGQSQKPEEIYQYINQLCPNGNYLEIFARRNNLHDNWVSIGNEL
Test: GST pull-down
Details: chain shown with the change;; parent: 100
parameter: percent of parent

Supply reported percent of parent belonging to this binder: Paramecium tetraurelia MTA9 (PteMTA9), untagged Y164A (protein) MGKNQRESLRMRLRYNEPGSENKRINYFKLNQGYDITEDDSEYMDEQDSYKAFKKIRKYKTKSKEDKVTCDNLEVLLQWKGSINCQSYETDQKKIVVLKKILGTDLSQYAKGVQGIFIDNLFKKDLKNLDISKKLISNGILFIWSDKSLINEILETMENKGFTAIENLVVVQLSLEQALEELNKHMKIEQTEDAVLDNLDFLQQKVQVKDLILHRPSKVLNQSKQVLIMFRKFDEQKSQLELRHQRTPDVLFDIVNNGKSCLKTKEYIYQTIETLLPKSQLMEIFAQKDQPRKGWISVCENK 0%
